# SYSTEM: T1, recombinant cynomolgus monkey PD-L1_ECD Fc-fusion protein (Sino Biological Inc.) (cynomolgus monkey, UniProt G7PSE7 19-238)
# T1 construct: Bought
# T1 sequence (G7PSE7 entry or part of it limits assumed): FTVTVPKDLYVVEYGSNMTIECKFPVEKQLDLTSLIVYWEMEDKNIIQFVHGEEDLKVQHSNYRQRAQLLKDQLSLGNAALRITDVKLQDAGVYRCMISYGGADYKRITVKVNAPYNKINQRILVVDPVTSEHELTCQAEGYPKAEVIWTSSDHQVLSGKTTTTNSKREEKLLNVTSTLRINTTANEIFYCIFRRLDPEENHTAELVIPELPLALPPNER
# TEST_NAME: ELISA: cynomolgus monkey PD-L1_ECD/Fc coated (9 ng/well), peroxidase-labeled goat anti-human IgG F(ab)'2, TMB, OD450
PARAMETER: EC50 (read off the curve)

[
  {
    "BINDER": "PL2#3 mtIgG1 (N297A) (antibody, V domains shown, N297A mutant of human IgG1 Fc backbone) VH: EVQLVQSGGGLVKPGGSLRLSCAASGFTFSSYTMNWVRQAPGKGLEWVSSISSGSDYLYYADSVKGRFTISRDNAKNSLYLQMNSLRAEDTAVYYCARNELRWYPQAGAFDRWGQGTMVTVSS VL: QSVVTQPPSMSAAPGQRVTISCSGSSSYIESSYVGWYQQLPGTAPRLLIYDDDMRPSGIPDRFSGSKSGTSATLAITGLQTGDEADYYCEIWRSGLGGVFGGGTKLTVLS",
    "PARAMETER": "EC50 (read off the curve)",
    "VALUE_OBSERVED": "~0.03 µg/mL"
  },
  {
    "BINDER": "PL3#7-43 mtIgG1 (antibody, V domains shown, Antibody was biotinylated (NHS-PEG4-biotin, sites not specified) for the Octet assay of Table 11., N297A mutant human IgG1; also called PL3#7-43 parental mtIgG1) VH: QVQLVQSGAEVKKPGSSVKVSCKASGGTFSSYPISWVRQAPGQGLEWMGRIIPILGIANYAQKFQGRVTITADKSTSTAYMELSSLRSEDTAVYYCARSRPGYAFGAFDIWGQGTLVTVSS VL: QSVVTQPPPVSGAPGQRVTISCTGSSSNVGAGYDVHWYQQLPGTAPKLLIYGNSNRSSGVPDRFSGSKSGTSASLAITGLQAEDEADYYCQTYDSSGSARVVFGGGTKLTVLG",
    "PARAMETER": "EC50 (read off the curve)",
    "VALUE_OBSERVED": "~0.04 µg/mL"
  },
  {
    "BINDER": "PL3#7-54 mtIgG1 (antibody, V domains shown, Antibody was biotinylated (NHS-PEG4-biotin, sites not specified) for the Octet assay of Table 11., N297A mutant human IgG1) VH: QVQLVQSGAEVKKPGSSVKVSCKASGGTFSSYPISWVRQAPGQGLEWMGRIIPILGIADYAQKFQGRVTITADKSTSTAYMELSSLRSEDTAVYYCARSRPGYAFGAFDIWGQGTLVTVSS VL: QSVVTQPPPVSGAPGQRVTISCTGSSSNIGQGYDVHWYQQLPGTAPKLLIYANSNRPSGVPDRFSGSKSGTSASLAITGLQAEDEADYYCQTYDSSLSARVVFGGGTKLTVLG",
    "PARAMETER": "EC50 (read off the curve)",
    "VALUE_OBSERVED": "~0.05 µg/mL"
  }
]
